B1: GOLPH3 (parent)
chain: FAPLLDEQYDLATKRVRQLLDLDP

- Variants of: B1
- MEASUREMENT NOTES: protein stability index of a GFP-peptide fusion (GPS, HEK-293T) (PSI 1-6); higher = more stable;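 note: lentivirally expressed fusions sorted by FACS into six bins by GFP to DsRed ratio, PSI derived from sequencing read proportions per bin multiplied by bin number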
- EXPERIMENTAL CONDITIONS: c terminus: a fixed tail appended
RESULT TYPE: protein stability index
# print the numeric value only

A12K : 1.99

Fill in protein stability index for record P3N 3.18

Identify protein stability index associated with the variant L11K 2.56

Tell me measured protein stability index for D21K please. 1.64

Return the recorded protein stability index value; entry: D10Q 1.46

Specify protein stability index for V16N and stop. 2

Give me measured protein stability index, please, for this variant: V16Y 2.58

Specify measured protein stability index for L11E . 3.48

Fill in protein stability index for record L4N 3.2

Could you please provide reported protein stability index for L19C ? Thanks! 1.49

Return protein stability index (reported value) for this variant: L4C 1.67

Note down protein stability index recorded for L20N 2.25

Fill in protein stability index for record E7D 2.02

Given the variant A12T , write its reported protein stability index. 2.3

Supply recorded protein stability index for V16A here. 2.12

For the variant L22F , give its reported protein stability index. 2.61

Please look at this variant and report its protein stability index: D6G 1.45

Give a short answer stating reported protein stability index for D10I . 1.88

Measured values drawn from the supplement of paper PMC10567573 for this set.
